target: SIK3 (Homo sapiens); construct: purchased SignalChem S12-11G-100; test: biochemical; conditions: ADP-Glo SIK kinase assay
Would you mind telling me the reported IC50 of each entry?

Here's what some known entries look like.
>>> endpoint_value("COc1cc(-c2cnc3cc(-c4cn[nH]c4)ccn23)cc(OC(F)F)c1C(=O)NC1CC1")
"0.01 to 10 nM"
>>> endpoint_value("COc1cc(-n2cnc3cc(-c4cnn(C)c4)ccc32)cc(OC)c1C(=O)N1CC(C#N)C1")
"0.01 to 10 nM"
>>> endpoint_value("COc1cc(-c2cnc3cc(-c4cnn(C5CN(C(=O)OC(C)(C)C)C5)c4)ccn23)cc(OC)c1C(=O)NCC(F)(F)F")
"0.01 to 10 nM"
>>> endpoint_value("COc1cc(-c2cnc3cc(-c4cnn(C)c4)c(OC(C)C#N)cn23)cc(OC(F)F)c1C(=O)NC1CC1 (centres unmarked)")
"0.01 to 10 nM"

Would you kindly look at the next entry?
Prompt line: Entry `COc1cc(-c2cnc3cc(-c4cnn(C)c4)c(OCc4ccccc4)cn23)cc(OC(F)F)c1C(=O)NC1CC1` : reported IC50 = ?
Response line: 10 to 100 nM

###

Would you mind telling me the reported IC50 of each entry?
Molecular target: SIK2 (Homo sapiens, UniProt Q9H0K1)
Construct: purchased ThermoFisher Scientific PV4792
Sequence (Q9H0K1 whole entry): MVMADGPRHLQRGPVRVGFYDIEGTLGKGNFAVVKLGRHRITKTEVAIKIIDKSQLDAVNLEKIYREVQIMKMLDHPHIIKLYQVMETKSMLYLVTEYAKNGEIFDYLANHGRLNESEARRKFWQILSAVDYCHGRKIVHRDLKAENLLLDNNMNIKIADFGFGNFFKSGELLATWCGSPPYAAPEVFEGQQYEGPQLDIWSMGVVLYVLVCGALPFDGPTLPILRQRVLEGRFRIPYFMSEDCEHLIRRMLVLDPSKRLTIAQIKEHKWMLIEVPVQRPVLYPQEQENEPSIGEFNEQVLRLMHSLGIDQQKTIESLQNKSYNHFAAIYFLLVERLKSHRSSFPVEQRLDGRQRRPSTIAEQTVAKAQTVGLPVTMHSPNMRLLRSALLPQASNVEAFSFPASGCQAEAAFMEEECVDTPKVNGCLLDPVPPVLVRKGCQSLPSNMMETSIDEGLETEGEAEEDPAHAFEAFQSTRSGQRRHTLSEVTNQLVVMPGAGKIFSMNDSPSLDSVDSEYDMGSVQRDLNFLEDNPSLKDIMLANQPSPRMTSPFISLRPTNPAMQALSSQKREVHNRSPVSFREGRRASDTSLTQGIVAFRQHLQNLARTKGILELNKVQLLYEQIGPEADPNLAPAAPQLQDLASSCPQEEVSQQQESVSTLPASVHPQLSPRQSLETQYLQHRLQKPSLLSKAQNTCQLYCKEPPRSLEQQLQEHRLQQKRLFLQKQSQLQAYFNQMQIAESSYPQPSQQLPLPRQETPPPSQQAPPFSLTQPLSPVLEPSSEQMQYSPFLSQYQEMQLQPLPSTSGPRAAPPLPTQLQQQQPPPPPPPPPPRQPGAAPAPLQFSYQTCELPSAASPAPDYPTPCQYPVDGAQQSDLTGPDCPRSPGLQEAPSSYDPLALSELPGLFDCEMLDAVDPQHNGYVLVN
Assay: biochemical
Settings: 33P radioactive SIK kinase assay, AMARA peptide, 10 μM ATP
Protocol: The principle of the ^33P radioactive kinase assay consists in measuring the incorporated ^33P into the substrate AMARA peptide when phosphorylated by SIK1, SIK2 or SIK3 using [^33P]-g-ATP, which correlates with kinase activity. […] After harvesting the kinase reactions, the filter plates are washed 6 times with phosphoric acid (75 mM). […] The top of the plates are sealed with TopSeal-A. Read-out is performed with a TopCount instrument (PerkinElmer Inc.).

Here's what some known entries look like.
>>> endpoint_value("CCNC(=O)c1c(OC)cc(-n2cnc3cc(-c4cnn(CCN5CCOCC5)c4)ccc32)cc1OC(F)F [compound 57]")
"0.01 to 10 nM"
>>> endpoint_value("COc1cc(-n2cnc3cc(-c4cnn(C)c4)ccc32)cc(OC)c1C(=O)N[C@@H]1C[C@@H]1F [compound 144]")
"0.01 to 10 nM"
>>> endpoint_value("COc1cc(-n2cnc3cc(-c4cnn(C)c4)ccc32)cc(OC)c1C(=O)N(C)CC#N [compound 74]")
"100 to 500 nM"
>>> endpoint_value("COc1cncc(-c2ccn3c(-c4cc(OC)c(C(=O)NCC(F)(F)F)c(OC)c4)cnc3c2)c1 [compound 245]")
"10 to 100 nM"

I have 3 molecules here; please give me IC50 for each one.
1. COCCN(C)C(=O)c1c(OC)cc(-c2cnc3cc(-c4cnn(C)c4)ccn23)cc1OC [compound 131]
2. COc1cc(-c2cnc3cc(-c4cc(C)no4)ccn23)cc(OC)c1C(=O)N[C@H](C)C(F)(F)F [compound 223]
3. CCOC(=O)C(C)n1cc(-c2ccn3c(-c4cc(OC)c(C(=O)NCC(F)(F)F)c(OC)c4)cnc3c2)cn1 (stereo not shown) [compound 263]

Response line:
1. 100 to 500 nM
2. 10 to 100 nM
3. 0.01 to 10 nM

###

biological target: SIK3 (Homo sapiens, UniProt Q9Y2K2); construct: purchased SignalChem S12-11G-100; experiment: biochemical
Sequence (Q9Y2K2 whole entry): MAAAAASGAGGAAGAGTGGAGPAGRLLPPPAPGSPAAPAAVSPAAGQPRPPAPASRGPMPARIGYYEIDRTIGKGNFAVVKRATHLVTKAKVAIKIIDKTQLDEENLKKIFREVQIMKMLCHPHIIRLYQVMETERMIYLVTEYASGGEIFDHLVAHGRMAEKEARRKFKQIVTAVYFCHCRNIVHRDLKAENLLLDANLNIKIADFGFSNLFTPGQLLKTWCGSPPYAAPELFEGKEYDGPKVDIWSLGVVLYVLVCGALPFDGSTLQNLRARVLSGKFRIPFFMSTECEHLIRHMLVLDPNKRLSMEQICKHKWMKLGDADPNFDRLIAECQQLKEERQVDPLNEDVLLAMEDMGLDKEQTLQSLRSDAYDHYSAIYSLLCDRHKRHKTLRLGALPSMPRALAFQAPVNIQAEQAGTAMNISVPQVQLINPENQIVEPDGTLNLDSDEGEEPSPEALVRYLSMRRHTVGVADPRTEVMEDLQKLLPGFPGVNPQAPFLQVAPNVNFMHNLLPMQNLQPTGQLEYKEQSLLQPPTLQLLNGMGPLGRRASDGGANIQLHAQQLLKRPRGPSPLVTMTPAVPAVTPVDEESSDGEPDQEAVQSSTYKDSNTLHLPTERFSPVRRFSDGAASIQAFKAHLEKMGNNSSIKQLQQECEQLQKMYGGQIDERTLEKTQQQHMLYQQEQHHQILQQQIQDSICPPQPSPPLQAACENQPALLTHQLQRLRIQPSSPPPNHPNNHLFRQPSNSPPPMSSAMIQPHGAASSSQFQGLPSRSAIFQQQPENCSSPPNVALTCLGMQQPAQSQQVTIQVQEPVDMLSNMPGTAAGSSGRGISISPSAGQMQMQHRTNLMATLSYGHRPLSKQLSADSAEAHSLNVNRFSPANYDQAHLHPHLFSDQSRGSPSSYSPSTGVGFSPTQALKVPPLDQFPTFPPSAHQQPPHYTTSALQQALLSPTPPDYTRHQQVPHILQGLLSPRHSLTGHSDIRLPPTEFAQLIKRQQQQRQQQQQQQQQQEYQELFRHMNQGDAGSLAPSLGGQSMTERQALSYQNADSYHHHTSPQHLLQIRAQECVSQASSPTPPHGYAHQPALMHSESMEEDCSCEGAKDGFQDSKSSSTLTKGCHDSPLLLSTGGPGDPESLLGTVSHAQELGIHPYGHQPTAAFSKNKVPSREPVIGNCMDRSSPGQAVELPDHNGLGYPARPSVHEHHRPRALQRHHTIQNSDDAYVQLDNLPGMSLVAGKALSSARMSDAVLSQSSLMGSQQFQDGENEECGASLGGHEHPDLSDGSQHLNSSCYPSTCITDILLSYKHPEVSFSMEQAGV
pIC50: −log10 of the molar value.
TEST_READOUT: pIC50

>>> endpoint_value("CCn1cc(-c2ccc3c(c2)ncn3-c2cc(OC)c(C(=O)NC3CCCC3)c(OC)c2)cn1")
"7.00 to 8.00"
>>> endpoint_value("COc1cc(-n2cnc3cc(-c4cnn(C5CN(CC#N)C5)c4)ccc32)cc(OC)c1C(=O)NCC(F)(F)F")
"8.00 to 11.00"

I have 5 compounds here; please give me pIC50 for each one.
1. COc1cc(-c2cnc3cc(-c4cnn(C)c4)ccn23)cc(O)c1C(=O)NCC(F)(F)F
2. COc1cc(-n2cnc3cc(-c4cnn(C5CCNCC5)c4)ccc32)cc(OC)c1C(=O)NCC(F)(F)F
3. COc1cc(-c2cnc3cc(-c4cnn(CC(=O)OC5CC5)c4)ccn23)cc(OC)c1C(=O)NCC(F)(F)F
4. CCOc1cncc(-c2ccn3c(-c4cc(OC)c(C(=O)NCC(F)(F)F)c(OC)c4)cnc3c2)c1
5. CCn1cc(-c2ccc3c(c2)ncn3-c2cc(OC)c(C(=O)NCCO)c(OC)c2)cn1

Response line:
1: 8.00 to 11.00; 2: 8.00 to 11.00; 3: 8.00 to 11.00; 4: 8.00 to 11.00; 5: 7.00 to 8.00

###

molecular target: SIK3 (Homo sapiens, UniProt Q9Y2K2); construct: purchased SignalChem S12-11G-100; assay: biochemical
pIC50: −log10 of the molar value.
TEST_READOUT: pIC50

I have 3 compounds here; please give me pIC50 for each one.
1. CCn1cc(-c2ccc3c(c2)ncn3-c2cc(OC)c(C(=O)NC3CC3)c(OC(F)F)c2)cn1
2. COc1ncc(-c2ccn3c(-c4cc(OC)c(C(=O)NCC(F)(F)F)c(OC)c4)cnc3c2)cn1
3. COc1cc(-n2cnc3cc(-c4cnn(C)c4)ccc32)cc(OC)c1C(=O)NCC(F)F

Response line:
1: 8.00 to 11.00; 2: 7.00 to 8.00; 3: 8.00 to 11.00

I have 5 compounds here; please give me pIC50 for each one.
1. COc1cc(-n2cnc3cc(-c4cnn(C)c4)ccc32)cc(OC)c1C(=O)NC1CS(=O)(=O)C1
2. COc1cncc(-c2ccc3c(c2)ncn3-c2cc(OC)c(C(=O)NCC(F)(F)F)c(OC)c2)c1
3. COc1cc(-n2cnc3cc(-c4cnc(C)[nH]4)ccc32)cc(OC)c1C(=O)NCC(F)(F)F
4. COc1cc(-n2cnc3cc(-c4cnn(C)c4)ccc32)cc(OC)c1C(=O)NC1CCC[C@@H]1O (stereo in doubt)
5. COc1cc(-n2cnc3cc(-c4cnn(C)c4)ccc32)cc(OC(F)F)c1C(=O)NC(C)(C)C

Response line:
["7.00 to 8.00", "7.00 to 8.00", "7.00 to 8.00", "7.00 to 8.00", "< 6.30"]

###

test system: LPS-induced TNFα secretion in monocyte-derived macrophages (MdM); test: MdM assay: LPS-triggered TNFα (ELISA); format: cell-based, human; settings: Homo sapiens, Macrophage, LPS-triggered TNFα inhibition
Would you mind telling me the reported EC50 of each entry?

Here's what some known entries look like.
>>> endpoint_value("CCn1cc(-c2ccc3c(c2)ncn3-c2cc(OC)c(C(=O)NCCF)c(OC)c2)cn1")
"100 to 1000 nM"
>>> endpoint_value("CCNC(=O)c1c(OC)cc(-n2cnc3cc(-c4cnn(CCN5CCOCC5)c4)ccc32)cc1OC(F)F")
"100 to 1000 nM"
>>> endpoint_value("CCn1cc(-c2ccc3c(c2)ncn3-c2cc(OC)c(C(=O)NC3CCC3)c(OC)c2)cn1")
"100 to 1000 nM"

Would you kindly look at the next entry?
Prompt line: Entry `COc1cc(-c2cnc3cc(-c4cnn(C)c4)ccn23)cc2c1C(=O)N(C1CC1)CC2` : reported EC50 = ?
Response line: 0.1 to 100 nM

###

target: SIK2 (Homo sapiens); construct: purchased ThermoFisher Scientific PV4792; experiment: biochemical; settings: 33P radioactive SIK kinase assay, AMARA peptide, 10 μM ATP
TEST_READOUT: IC50

Here's what some known entries look like.
>>> endpoint_value("COc1cc(-n2cnc3cc(-c4nc(C)no4)ccc32)cc(OC)c1C(=O)NCC(F)(F)F [Cpd 169]")
"> 500 nM"
>>> endpoint_value("COc1cc(-c2cnc3cc(-c4cnn(C)c4)ccn23)cc(OC)c1C(=O)NC1CC1 [compound 102]")
"0.01 to 10 nM"

I have 7 compounds here; please give me IC50 for each one.
1. CCn1cc(-c2ccc3c(c2)ncn3-c2cc(OC)c(C(=O)N(C)CCOC)c(OC)c2)cn1 [compound 27]
2. COc1cc(-c2cnc3cc(-c4cnn(C)c4)ccn23)cc(OC)c1C(=O)N1CC(C#N)C1 [compound 209]
3. CCNC(=O)c1c(OC)cc(-c2cnc3cc(-c4cnn(C5CCN(C(=O)OC(C)(C)C)CC5)c4)ccn23)cc1OC(F)F [compound 147]
4. COc1ncc(-c2ccn3c(-c4cc(OC)c(C(=O)NCC(F)(F)F)c(OC)c4)cnc3c2)cn1 [compound 241]
5. CCNC(=O)c1c(OC)cc(-n2cnc3cc(-c4cccnc4)ccc32)cc1OC [compound 2]
6. COc1cc(-c2cnc3cc(-c4cnn(C)c4)ccn23)cc(F)c1C(=O)NCC(F)(F)F [compound 203]
7. COc1cc(-c2cnn3cc(-c4cnn(C)c4)cnc23)cc(OC)c1C(=O)NCC(F)F [compound 24]

Response line:
> 500 nM
0.01 to 10 nM
0.01 to 10 nM
100 to 500 nM
100 to 500 nM
0.01 to 10 nM
0.01 to 10 nM
